Provenance of the data: paper PMC5509744

Experimental Target: PMM/PGM (Pseudomonas aeruginosa, UniProt P26276, S108C)
Construct: gene algC
Sequence (P26276 whole entry S108C): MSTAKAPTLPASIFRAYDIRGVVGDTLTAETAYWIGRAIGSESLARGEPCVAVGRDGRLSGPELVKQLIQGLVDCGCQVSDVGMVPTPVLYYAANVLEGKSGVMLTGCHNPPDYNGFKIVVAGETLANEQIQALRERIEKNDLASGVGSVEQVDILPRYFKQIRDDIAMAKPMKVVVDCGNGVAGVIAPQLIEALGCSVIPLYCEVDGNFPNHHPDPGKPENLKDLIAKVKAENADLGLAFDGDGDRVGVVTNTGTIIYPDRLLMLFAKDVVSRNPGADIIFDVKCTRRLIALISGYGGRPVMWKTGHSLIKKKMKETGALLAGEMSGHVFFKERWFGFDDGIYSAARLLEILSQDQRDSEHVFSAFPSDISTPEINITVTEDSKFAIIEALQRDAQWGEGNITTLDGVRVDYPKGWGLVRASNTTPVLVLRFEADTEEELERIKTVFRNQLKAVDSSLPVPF
Setup Conditions: read-out: Apparent dissociation constant; 50 mM MOPS pH 7.4, 1 mM MgCl2, 310 K; unphosphorylated enzyme
Reported Metric: pKd
Interpret pKd as the negative base-10 log of the concentration measured in mol/L.

[in] Return value of pKd for input O=P(O)(O)OC[C@H]1OC(O)[C@H](O)[C@@H](O)[C@@H]1O (stereo partly shown) [G6P, glucose 6-phosphate] , no commentary.
[out] 4.70

----------
Experimental Target: PMM/PGM (Pseudomonas aeruginosa, UniProt P26276, S108C)
Construct: gene algC
Experiment Summary: biochemical
Reported Metric: Kd (µM)
Dear colleague, please return just the value in µM, with no unit written.

[in] Determine from records and report Kd for O=P(O)(O)O[C@H]1O[C@H](CO)[C@@H](O)[C@H](O)[C@H]1O [G1P, glucose 1-phosphate]
[out] 198

[in] Please look at this compound and report its Kd: O=P(O)(O)OC[C@H]1O[C@H](OP(=O)(O)O)[C@H](O)[C@@H](O)[C@@H]1O [G16P, glucose 1,6-bisphosphate]
[out] 839

[in] Answer with the recorded Kd for the compound listed here: O=P(O)(O)O[C@H]1OC[C@@H](O)[C@H](O)[C@H]1O [X1P, xylose 1-phosphate]
[out] 11
